# Test protocol: Volume of distribution in Sprague-Dawley rat at 0.1 mg/kg, iv and 1 mg/kg, po
# Type: ADME, organism-based
# Run parameters: in vivo
Value kind: Vd (L/kg)

>>> meas_value("Cn1cc(S(=O)(=O)N2CCC(CNC(=O)c3ccc(Cl)cc3Cl)(CC3CC3)CC2)nn1")
2.2

----------
Attribute: metabolised at 0.25 h, 1 µM
# Test protocol: Metabolic stability in rat liver microsomes assessed as parent compound turnover at 1 uM after 15 mins
# Format: ADME, Microsome
# Run parameters: read-out: Stability
Value kind: metabolised at 0.25 h, 1 µM

>>> meas_value("Cn1cc(S(=O)(=O)N2CCC(CNC(=O)c3ccc(Cl)cc3Cl)(c3ncccc3F)CC2)cn1")
"55%"
>>> meas_value("Cn1cnc(S(=O)(=O)N2CCC(CNC(=O)c3ccc(Cl)cc3Cl)(c3ncccc3F)CC2)c1")
"30%"
>>> meas_value("O=C(NCC1(c2ncccc2F)CCN(S(=O)(=O)CC2CC2)CC1)c1ccc(Cl)cc1Cl")
"78%"
>>> meas_value("O=C(NCC1(c2ncccc2F)CCN(S(=O)(=O)c2cccnc2)CC1)c1ccc(Cl)cc1Cl")
"99%"
>>> meas_value("Cn1cc(S(=O)(=O)N2CCC(CNC(=O)c3ccc(Cl)cc3Cl)(CC3CC3)CC2)cn1")
"5%"
>>> meas_value("Cn1cc(S(=O)(=O)N2CC(CNC(=O)c3ccc(Cl)cc3Cl)(CC3CC3)C2)cn1")
"17%"
>>> meas_value("Cn1cc(S(=O)(=O)[C@H]2CC[C@](CNC(=O)c3ccc(Cl)cc3Cl)(CC3CC3)CC2)nn1")
"10%"
>>> meas_value("Cn1cc(S(=O)(=O)N2CCC(CNC(=O)c3ccc(Cl)cc3Cl)(c3ncccc3F)CC2)nn1")
"6%"
>>> meas_value("Cn1cc(S(=O)(=O)N2CC(CNC(=O)c3ccc(Cl)cc3Cl)(c3ncccc3F)C2)cn1")
"56%"

----------
Listing: metabolised at 0.25 h, 1 µM of selected compounds
# Test protocol: Metabolic stability in dog liver microsomes assessed as parent compound turnover at 1 uM after 15 mins
# Assay type: ADME, Canis lupus familiaris, Microsome
# Run parameters: read-out: Stability
Value kind: metabolised at 0.25 h, 1 µM (%)

>>> meas_value("Cn1cc(S(=O)(=O)N2CC(CNC(=O)c3ccc(Cl)cc3Cl)(c3ncccc3F)C2)nn1")
5
>>> meas_value("Cn1cc(S(=O)(=O)N2CCC(CNC(=O)c3ccc(Cl)cc3Cl)(c3ncccc3F)CC2)cn1")
24
>>> meas_value("O=C(NCC1(c2ncccc2F)CCN(S(=O)(=O)CC2CC2)CC1)c1ccc(Cl)cc1Cl")
20
